Test system: OVCAR-5
assay_comment: NCI tumour cell line growth inhibition, 48 h
Active and inactive are the calls of the source. Cut-off read from the data, not from the text of the source: active = GI50 up to about 1.1 µM and inactive = higher.
Below is a list of entries, each paired with its recorded GI50 value.

The cases that follow already have their GI50 on record.
molecule: N#CCCC1(CCC#N)CCCCCCCCC(CCC#N)(CCC#N)C(=O)C1=O
GI50: > 100 µM (inactive)
//
molecule: C[C@]12CC[C@H](OCCC#N)CC1=CC[C@@H]1C2CC[C@]2(C)/C(=N/OCCC#N)CCC12 (stereo not given in full)
GI50: > 100 µM (inactive)
//
molecule: CC(=O)Nc1nc(O)c2nc(C=O)cnc2n1
GI50: > 100 µM (inactive)
//
molecule: CCOC(=O)C(=Cc1[nH]c2ccccc2c1-c1c[nH]c2ccccc12)C(=O)OCC
GI50: 15.1 µM (inactive)

Shift focus to the following entry.
Consider the molecule "O=C(Nc1ccccc1C(=O)Nc1nccs1)c1ccccc1" . State its measured GI50. > 100 µM (inactive)

====

Test system: NCI-H226
assay_comment: NCI tumour cell line growth inhibition, 48 h
Calls of active or inactive are those of the source. Rule as the data show it: active = GI50 up to about 1.1 µM and inactive = higher.
recorded_metric: GI50

Sample answers from the record:
compound: COc1ccc(\N=C/C=C/C(=C/COC(C)=O)OC(C)=O)cc1
value_reported: > 100 µM (inactive)
//
compound: CN(CCO)c1nc(=O)c2c(n1C1OC(CO)C(O)C(O)C1O)CCCC2 (stereo not given)
value_reported: > 100 µM (inactive)
//
compound: COc1ccc2c(c1)c(=O)c1c(NCCN(C)C)ccc3nnn2c31
value_reported: 2.46 µM (inactive)
//
compound: CC1(C)CNCC(C)(OCc2ccccc2)C(=O)NC(C)(C)CNCC(C)(OCc2ccccc2)C(=O)N1 (stereo not given)
value_reported: > 10 µM (inactive)

# assay system NCI-H226: give GI50 of COc1ccc2c(c1)CC[C@@H]1C2CC[C@]2(C)C(=O)N(CCN(C)C)C(=O)CC12 (stereo not given in full) > 100 µM (inactive)

====

As shown below, each of these compounds has a reported GI50 value.
Tested on: NCI-H522
assay_comment: NCI tumour cell line growth inhibition, 48 h
Activity calls are given as the source filed them. No stated cut-off is given here; in the data, active = GI50 up to about 1.1 µM and inactive = higher.

compound: CCn1c(=O)c2nc(SC)sc2n(-c2ccc(C)cc2)c1=O
GI50: > 100 µM (inactive)
--
compound: CCNC(=S)NNC(=O)C12CC3CC(CC(C3)C1)C2
GI50: > 100 µM (inactive)
--
compound: CCOC(=O)/C(C#N)=C1/SC(C(=O)N/N=C/c2ccc(OC)cc2)=C(N)N1c1ccccc1
GI50: > 100 µM (inactive)

Provide GI50 value for the following compound: "COc1cc(Br)c(OC)c2c(OC)cc(C)cc12" > 100 µM (inactive)

Assign GI50 to the following record: COc1cc(CC2C(=O)OCC2[C@@H](OC(C)=O)c2ccc3c(c2)OCO3)c(Br)c(OC)c1OC (stereo partly drawn) 26.5 µM (inactive)

Provide only the value of recorded GI50 for C=C1CC2C(=O)N(c3ccccc3)C(=O)C2CC1n1[nH]c(=O)n(Cc2ccccc2)c1=O (stereo not drawn) > 100 µM (inactive)

Identify measured GI50 associated with "Cc1cc(CCC(=O)NCCNc2c3ccccc3nc3ccccc23)cc(C)c1O[Si](C)(C)C(C)(C)C" 1.73 µM (inactive)

Kindly indicate its recorded GI50. Item: "O=C1NC(SSC2=NNC3(C(=O)N2)c2ccccc2-c2ccccc23)=NNC12c1ccccc1-c1ccccc12" > 10 µM (inactive)

====

Tested on: HCC 2998
assay_comment: NCI tumour cell line growth inhibition, 48 h
Activity calls are given as the source filed them. Cut-off read from the data, not from the text of the source: active = GI50 up to about 1.1 µM and inactive = higher.
Documented GI50 across a set of compounds

A selection of reference data follows.
compound: CCn1c(=O)c2nc(SC)sc2n(-c2ccc(C)cc2)c1=O
recorded_metric: GI50
value_reported: > 100 µM (inactive)
//
compound: O=C1/C(=C/c2ccc(Cl)cc2)CCCc2ccccc21
recorded_metric: GI50
value_reported: 22.2 µM (inactive)
//
compound: COP1(=O)OCc2cnccc2O1 (configuration not stated)
recorded_metric: GI50
value_reported: > 100 µM (inactive)
//
compound: CC1(C)CNCC(C)(OCc2ccccc2)C(=O)NC(C)(C)CNCC(C)(OCc2ccccc2)C(=O)N1 (configuration not stated)
recorded_metric: GI50
value_reported: > 10 µM (inactive)
//
compound: COc1ccc(OC)c(/C=C/c2cnnc3ccccc23)c1
recorded_metric: GI50
value_reported: 5.27 µM (inactive)
//
compound: O=C(CCc1cc(O)ccc1O)OCCc1ccccc1
recorded_metric: GI50
value_reported: 47.2 µM (inactive)
//
compound: CCC1(OC(C)=O)C(=O)OCc2c1cc1n(c2=O)Cc2cc3ccccc3nc2-1 (configuration not stated)
recorded_metric: GI50
value_reported: 4.42 µM (inactive)
//
compound: CC(C)(C)CN1[C@@H]2CCCC[C@H]2N(CC(C)(C)C)P1(=O)Cc1ccccc1
recorded_metric: GI50
value_reported: 9.14 µM (inactive)
//
compound: CN1C(=O)[C@@]2(C=CC3(CC2)OCCO3)c2ccccc21
recorded_metric: GI50
value_reported: > 50 µM (inactive)
//
compound: COC(=O)c1c(O)ccc2c1c1c(n2Cc2ccc(Cl)cc2Cl)C(=O)c2ccccc2C1=O
recorded_metric: GI50
value_reported: 3.48 µM (inactive)

Check the records and state GI50 for "NNC(=O)CC(=O)Nc1ccc(Cl)cc1" > 100 µM (inactive)

Supply recorded GI50 for "CC(=O)NNc1nc(C)c(C(/C=C/c2ccc3c(c2)OCO3)=N/NC(=O)c2ccncc2)s1" here. > 100 µM (inactive)

Return GI50 for the following compound: O=C(O)C12C3C4C1C1C2C3C41I (configuration not stated) > 100 µM (inactive)

Determine its reported GI50: Cc1ccc(S(=O)(=O)C(C#N)c2nc3ccccc3nc2N2CCOCC2)cc1 (configuration not stated) 14.1 µM (inactive)

Assign GI50 to the following record: "O=C(N/C=C/C=C/Sc1ccccc1)OCc1ccccc1" 20.1 µM (inactive)

Give the reported value of GI50 for this record: "COc1cc2nncc(Sc3cnnc4ccccc34)c2cc1OC" 17.6 µM (inactive)

Report measured GI50; entry is "O=C1NC(SSC2=NNC3(C(=O)N2)c2ccccc2-c2ccccc23)=NNC12c1ccccc1-c1ccccc12" > 10 µM (inactive)

Read off the recorded GI50 for "Cc1ccc(C(=O)O)cc1NC(=O)c1cc(/C=C/c2ccccc2)[nH]c(=S)n1" > 100 µM (inactive)

Complete the entry with GI50 for COC(=O)Nc1nc2ccccc2[nH]1 [CARBENDAZIM] 5.37 µM (inactive)

Quickly give me recorded GI50 for CC1(C)C(O)OC(O)C1(C)C (configuration not stated) > 100 µM (inactive)

// fetch GI50 given entry CS(=O)(=O)C[S+]([O-])C[S+]([O-])C[S+]([O-])CC(NC(=O)CCC(N)C(=O)O)C(=O)O (configuration not stated) > 100 µM (inactive)

Read off the recorded GI50 for "CC(=O)OC[C@@H]1[C@H]2CC(=O)O[C@H]2C[C@H]1OC(C)=O" > 100 µM (inactive)

====

Parameter GI50: see the listing below.
Tested on: SK-MEL-5
assay_comment: NCI tumour cell line growth inhibition, 48 h
Calls of active or inactive are those of the source. No stated cut-off is given here; in the data, active = GI50 up to about 1.1 µM and inactive = higher.

compound: CO[C@]12C[C@H](CNC(=O)c3ccc[nH]3)O[C@H]1NC(=O)N2
recorded_metric: GI50
value_reported: > 100 µM (inactive)
--
compound: C/N=c1/ssc(=S)n1C(C)C
recorded_metric: GI50
value_reported: 19.8 µM (inactive)
--
compound: COCCOCC(=O)N(CCn1ccc(NC(c2ccccc2)(c2ccccc2)c2ccccc2)nc1=O)CCn1cnc2nc(N)[nH]c(=O)c21
recorded_metric: GI50
value_reported: > 100 µM (inactive)
--
compound: CN(C)C(=O)Oc1ccc(C(=S)Nc2ccccc2)cc1
recorded_metric: GI50
value_reported: 24 µM (inactive)
--
compound: CCN(CC)C(=O)N1CN(c2ccccc2)C2(CCN(CCCSc3ccc(F)cc3)CC2)C1=O
recorded_metric: GI50
value_reported: 3.66 µM (inactive)
--
compound: Cc1cc(-c2nc3ccccc3s2)ccc1NS(=O)(=O)O
recorded_metric: GI50
value_reported: > 100 µM (inactive)

Jot down GI50 (SK-MEL-5) of "COc1ccc(-c2oc3c(CC(=O)O)cccc3c(=O)c2OC)cc1" . > 100 µM (inactive)

State GI50 (SK-MEL-5) of "Cn1c(=O)c2c(nc(-n3nc(-c4ccc(Cl)cc4)cc3N)n2C)n(C)c1=O" . 6.37 µM (inactive)

Give measured GI50 for CC[C@@]1(OC(=O)C(N)CCCCN)C(=O)OCc2c1cc1n(c2=O)Cc2cc3ccccc3nc2-1 (stereo not given in full) (SK-MEL-5). 0.0377 µM (active)

// output GI50; input C[C@]12CC[C@H](OCCC#N)CC1=CC[C@@H]1C2CC[C@]2(C)/C(=N/OCCC#N)CCC12 (stereo not given in full) ; system SK-MEL-5 > 21 µM (inactive)
